The values you see were collected from ChEMBL document CHEMBL4406869.

- protocol.notes: Cytotoxicity against mouse L929 cells assessed as cell viability at 200 ug/ml after 24 hrs by MTT assay relative to control
- Assay type: cell-based
- conditions: read-out: Activity
measure: viability at 24 h, 200 ug/ml (%)
Numeric only. Scale: %

input: Give the value of viability at 24 h, 200 ug/ml reported for the following: C(=N\Nc1nc(C23CC4CC(CC(C4)C2)C3)cs1)/c1cc2ccccc2s1
output: 81.8

---

- protocol.notes: Selectivity ratio of CC30 for cytotoxicity against mouse L929 cells to IC50 for antiparasitic activity against Toxoplasma gondii RH infected in human Hs27 cells
- Format: toxicity, cell-based
measure: selectivity ratio
Write no unit; give the number alone.

# example entries with known answers
- COc1cc(Cc2cnc(N)nc2N)cc(OC)c1OC [TRIMETHOPRIM]: 1.32
- C(=N\Nc1nc(C23CC4CC(CC(C4)C2)C3)cs1)/c1cc2ccccc2s1: 25.7

As a next step, examine the compound that follows.
input: Give the value of selectivity ratio reported for the following: Nc1ccc(S(=O)(=O)Nc2ncccn2)cc1 [SULFADIAZINE]
output: 0.46
